- system.tested: T1, recombinant human IL-23R/Fc chimera (R&D Systems) (human, UniProt Q5VWK5 24-355)
- T1 construct: Bought; also called rhIL23RFc
- T1 sequence (looked up): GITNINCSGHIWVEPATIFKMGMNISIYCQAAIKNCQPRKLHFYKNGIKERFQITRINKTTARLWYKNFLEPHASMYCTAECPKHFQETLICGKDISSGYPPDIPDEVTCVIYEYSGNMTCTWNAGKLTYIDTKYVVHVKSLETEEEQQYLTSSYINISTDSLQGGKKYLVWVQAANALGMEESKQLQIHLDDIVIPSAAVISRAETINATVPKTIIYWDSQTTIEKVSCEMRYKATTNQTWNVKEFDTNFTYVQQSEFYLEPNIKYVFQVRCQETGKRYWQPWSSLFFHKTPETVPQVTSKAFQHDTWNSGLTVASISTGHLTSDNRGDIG
- method.notes: competition ELISA vs IL-23
measurement.type: Ratio IC50 to 056-53.H4E IC50
Form: value (number only, do not type unit).

{"binder": "105-20-2C4b ATRIMER complex (designed binder) EPPTQKPKKIVNAKKDVVNTKMFEELKSRLDTLAQEVALLKEQQALQTVCLKGTKVHMKCFLAFTQTKTFHEASEDCISRGGTLSTPQTGSENDALYEYLRQSVGNEAEIWLGLNGSVKTDTWVDMTGARIAYKNWETEITAQPDGGWGYFGENCAVLSGAANGKWFDKRCRDQLPYICQFGIV", "measurement.type": "Ratio IC50 to 056-53.H4E IC50", "observed.result": 4.2}

Endpoint output: Ratio IC50 to 056-53.H4E IC50 of 105-08-2C10 ATRIMER complex (designed binder) EPPTQKPKKIVNAKKDVVNTKMFEELKSRLDTLAQEVALLKEQQALQTVCLKGTKVHMKCFLAFTQTKTFHEASEDCISRGGTLSTPQTGSENDALYEYLRQSVGNEAEIWLGLNGSLLTDTWVDMTGARIAYKNWETEITAQPDGGFGVFGENCAVLSGAANGKWFDKRCRDQLPYICQFGIV . Value? 0.9

// repeat for 105-08-1B7 ATRIMER complex (designed binder) EPPTQKPKKIVNAKKDVVNTKMFEELKSRLDTLAQEVALLKEQQALQTVCLKGTKVHMKCFLAFTQTKTFHEASEDCISRGGTLSTPQTGSENDALYEYLRQSVGNEAEIWLGLNGSPRTDTWVDMTGARIAYKNWETEITAQPDGGFGYFGENCAVLSGAANGKWFDKRCRDQLPYICQFGIV and report 4.1

// repeat for 105-20-2F12 ATRIMER complex (designed binder, ATRIMER complex: homotrimer of three copies of this chain, joined by the tetranectin coiled coil, not shown: C-terminal tag: Myc/His (pANA4) or HA-StrepII (pANA10)) EPPTQKPKKIVNAKKDVVNTKMFEELKSRLDTLAQEVALLKEQQALQTVCLKGTKVHMKCFLAFTQTKTFHEASEDCISRGGTLSTPQTGSENDALYEYLRQSVGNEAEIWLGLNGSKLTDTWVDMTGARIAYKNWETEITAQPDGGFGYFGENCAVLSGAANGKWFDKRCRDQLPYICQFGIV and report 2.8
